- Tested on: Pseudomonas aeruginosa
- measurement.notes: Antimicrobial activity against multidrug-resistant Pseudomonas aeruginosa 125 assessed as inhibition of visible bacterial growth incubated for 18 hrs by broth-dilution method
- Format: functional
Numbered stars: 1 amine (or outer) side, 2 acyl side, 3 side chain; on linkers, the order of the positions; unused ones are H or OH. Square brackets hold non-standard residues; d marks the D form. Peptide text beside a SMILES is read from it. * marks the point of attachment. X3 = CC(C)C[C@@H](CN(CC(N)=O)S(=O)(=O)c1ccc(C(F)(F)F)cc1)N*; X4 = N[C@@H](Cc1ccccc1)CN(CC(=O)[*:2])[*:1]; X2 = CC(C)C[C@H](N)CN(CC(=O)[*:2])[*:1]; X1 = O=S(=O)(c1ccc(C(F)(F)F)cc1)*
metric.name: MIC (µg/mL)
The reply should be a number in µg/mL, with the unit left off.

Observe how each entry below is paired with its result.
- CC(C)C[C@@H](CN(CC(N)=O)S(=O)(=O)c1ccc(C(F)(F)F)cc1)NC(=O)[C@H](CCCCN)NC(=O)[C@H](CCCCN)NC(=O)[C@H](CC(C)C)NC(=O)[C@H](CC(C)C)NC(=O)[C@H](CCCCN)NC(=O)[C@H](CC(C)C)NC(=O)[C@@H](N)Cc1ccccc1 (H-FLKLLKK-X3): 16
- CC(C)(O/N=C(\C(=O)N[C@@H]1C(=O)N2C(C(=O)[O-])=C(C[n+]3ccccc3)CS[C@H]12)c1csc(N)n1)C(=O)O [CEFTAZIDIME]: 2
- C[C@@H](O)[C@H]1C(=O)N2C(C(=O)O)=C(SCCNC=N)C[C@H]12 [IMIPENEM ANHYDROUS]: 8
- CC(C)C[C@H](NC(=O)[C@H](CC(C)C)NC(=O)[C@H](CCCCN)NC(=O)[C@H](CCCCN)NC(=O)[C@H](CC(C)C)NC(=O)[C@H](C)NC(=O)[C@H](CCCCN)NC(=O)CN(C[C@@H](N)Cc1ccccc1)S(=O)(=O)c1ccc(C(F)(F)F)cc1)C(N)=O (X1-[X4]KALKKLL-NH2): 8
- CC(C)C[C@H](N)CN(CC(=O)N[C@@H](CCCCN)C(=O)N[C@@H](CC(C)C)C(=O)N[C@@H](CC(C)C)C(=O)N[C@@H](CCCCN)C(=O)N[C@@H](CCCCN)C(=O)N[C@@H](CC(C)C)C(=O)N[C@@H](CC(C)C)C(N)=O)S(=O)(=O)c1ccc(C(F)(F)F)cc1 (X1-[X2]KLLKKLL-NH2): 8

Input: So what does the record say about MIC for C[C@H]1[C@H](NC(=O)/C(=N\OC(C)(C)C(=O)O)c2csc(N)n2)C(=O)N1S(=O)(=O)O [AZTREONAM] ?
Output: 8

====

- measurement.notes: Stability in human serum assessed as half life measured for 5 hrs by RP-HPLC analysis
- Assay type: ADME, cell-free
Numbered stars: 1 amine (or outer) side, 2 acyl side, 3 side chain; on linkers, the order of the positions; unused ones are H or OH. Square brackets hold non-standard residues; d marks the D form. Peptide text beside a SMILES is read from it. * marks the point of attachment. X6 = CC(C)C[C@@H](CN(CC(N)=O)S(=O)(=O)c1cc(C(F)(F)F)cc(C(F)(F)F)c1)N*; X2 = CC(C)C[C@H](N)CN(CC(=O)[*:2])[*:1]; X1 = O=S(=O)(c1ccc(C(F)(F)F)cc1)*
metric.name: half-life (h)
The reply should be a number in h, with the unit left off.

* CC(C)C[C@H](N)CN(CC(=O)N[C@@H](CCCCN)C(=O)N[C@@H](CC(C)C)C(=O)N[C@@H](CC(C)C)C(=O)N[C@@H](CCCCN)C(=O)N[C@@H](CCCCN)C(=O)N[C@@H](CC(C)C)C(=O)N[C@@H](CC(C)C)C(N)=O)S(=O)(=O)c1ccc(C(F)(F)F)cc1 (X1-[X2]KLLKKLL-NH2) | 9.22

For the next question, use this molecule.
Input: So what does the record say about half-life for CC(C)C[C@@H](CN(CC(N)=O)S(=O)(=O)c1cc(C(F)(F)F)cc(C(F)(F)F)c1)NC(=O)[C@H](CCCCN)NC(=O)[C@H](CCCCN)NC(=O)[C@H](CC(C)C)NC(=O)[C@H](CC(C)C)NC(=O)[C@H](CCCCN)NC(=O)[C@H](CC(C)C)NC(=O)[C@@H](N)Cc1ccccc1 (H-FLKLLKK-X6) ?
Output: 2.24
